Target: 5-HT1A type serotonin receptor (human recombinant, HEK-293 cells) (Homo sapiens)
Construct: expressed in transfected cells; host or cells: HEK-293 cells
Assay: Competitive binding to 5-HT1A receptor, [3H]-8-OH-DPAT radioligand
Details: 5 μM compound; [3H]-8-OH-DPAT 0.5 nM
Method: Compounds were assayed for competitive binding to the 5-HT1A type serotonin receptor. The receptor is expressed as human recombinant proteins in HEK-293 cells, as described, for example, in Hoyer et al. (1985) and Schoeffter and Hoyer (1989). Determination of binding to 5-HT1A receptor was performed using [^3H]-8-OH-DPAT, a 5-HT1A receptor ligand (Hoyer et al., 1985), as a radioligand (221 Ci/mmol, 0.5 nM) in the presence of various concentrations of the tested compound. […]

>  <CHEMICAL SMILES>
O=c1[nH]c(CN2CCC(c3ccccc3)CC2)nc2sc3c(c12)CCCC3

>  <STUDY SYSTEM>
5-HT1A type serotonin receptor (human recombinant, HEK-293 cells) (Homo sapiens)

>  <5HT1A receptor Binding % at 5 μM>
active

$$$$
>  <CHEMICAL SMILES>
CCOc1ccccc1N1CCN(Cc2nc3sc4c(c3c(=O)[nH]2)CCCC4)CC1

>  <STUDY SYSTEM>
5-HT1A type serotonin receptor (human recombinant, HEK-293 cells) (Homo sapiens)

>  <5HT1A receptor Binding % at 5 μM>
97.67%

$$$$
>  <CHEMICAL SMILES>
CCOc1ccccc1N1CCN(Cc2cc3c(cn2)[nH]c2ccccc23)CC1

>  <STUDY SYSTEM>
5-HT1A type serotonin receptor (human recombinant, HEK-293 cells) (Homo sapiens)

>  <5HT1A receptor Binding % at 5 μM>
100.34%

$$$$
>  <CHEMICAL SMILES>
Oc1cccc(N2CCN(Cc3cc4c(cn3)[nH]c3ccccc34)CC2)c1

>  <STUDY SYSTEM>
5-HT1A type serotonin receptor (human recombinant, HEK-293 cells) (Homo sapiens)

>  <5HT1A receptor Binding % at 5 μM>
active

$$$$
>  <CHEMICAL SMILES>
O=c1[nH]c(CN2CCN(c3cccc(O)c3)CC2)nc2sc3c(c12)CCCC3

>  <STUDY SYSTEM>
5-HT1A type serotonin receptor (human recombinant, HEK-293 cells) (Homo sapiens)

>  <5HT1A receptor Binding % at 5 μM>
active

$$$$
>  <CHEMICAL SMILES>
COc1ccccc1N1CCN(Cc2cc3c(cn2)[nH]c2ccccc23)CC1

>  <STUDY SYSTEM>
5-HT1A type serotonin receptor (human recombinant, HEK-293 cells) (Homo sapiens)

>  <5HT1A receptor Binding % at 5 μM>
active

$$$$

* * *

target: D4.4 type dopamine receptor (human recombinant, CHO cells) (Homo sapiens, UniProt P21917); construct: expressed in transfected cells; host or cells: CHO cells; assay: Competitive binding to D4.4 dopamine receptor, [3H]-YM-09151-2 radioligand; conditions: 1 μM compound; [3H]-YM-09151-2 0.3 nM
Sequence (P21917 whole entry): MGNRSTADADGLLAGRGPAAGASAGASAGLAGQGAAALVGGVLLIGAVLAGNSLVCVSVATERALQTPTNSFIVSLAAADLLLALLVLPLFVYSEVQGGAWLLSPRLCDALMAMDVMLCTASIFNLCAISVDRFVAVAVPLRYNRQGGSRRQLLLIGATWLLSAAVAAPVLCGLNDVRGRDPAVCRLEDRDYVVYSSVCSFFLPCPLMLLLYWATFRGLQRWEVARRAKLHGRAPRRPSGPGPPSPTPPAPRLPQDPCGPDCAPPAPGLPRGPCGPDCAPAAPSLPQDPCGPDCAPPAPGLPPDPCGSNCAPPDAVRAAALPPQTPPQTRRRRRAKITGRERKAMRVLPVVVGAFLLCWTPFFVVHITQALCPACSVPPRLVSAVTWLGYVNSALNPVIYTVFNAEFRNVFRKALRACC
Below: a set of entries, each annotated with reported D4.4(h) receptor Competitive Binding, % at 1 μM.
METRIC NAME: D4.4(h) receptor Competitive Binding, % at 1 μM (%)

>  <CHEMICAL SMILES>
CCOc1ccccc1N1CCN(Cc2nc3sc4c(c3c(=O)[nH]2)CCCC4)CC1

>  <UNIT SPEC>
%

>  <OBSERVED RESULT>
89.02

$$$$
>  <CHEMICAL SMILES>
O=c1[nH]c(CN2CCN(c3cccc(O)c3)CC2)nc2sc3c(c12)CCCC3

>  <UNIT SPEC>
%

>  <OBSERVED RESULT>
86.68

$$$$
>  <CHEMICAL SMILES>
CCOc1ccccc1N1CCN(Cc2cc3c(cn2)[nH]c2ccccc23)CC1

>  <UNIT SPEC>
%

>  <OBSERVED RESULT>
100.99

$$$$
>  <CHEMICAL SMILES>
Oc1cccc(N2CCN(Cc3cc4c(cn3)[nH]c3ccccc34)CC2)c1

>  <UNIT SPEC>
%

>  <OBSERVED RESULT>
102.45

$$$$
>  <CHEMICAL SMILES>
COc1ccccc1N1CCN(Cc2cc3c(cn2)[nH]c2ccccc23)CC1

>  <UNIT SPEC>
%

>  <OBSERVED RESULT>
102.4

$$$$
>  <CHEMICAL SMILES>
O=c1[nH]c(CN2CCC(c3ccccc3)CC2)nc2sc3c(c12)CCCC3

>  <UNIT SPEC>
%

>  <OBSERVED RESULT>
81.97

$$$$

* * *

target: 5-HT1A type serotonin receptor (human recombinant, HEK-293 cells) (Homo sapiens, UniProt P08908); construct: expressed in transfected cells; host or cells: HEK-293 cells; test: Competitive binding to 5-HT1A receptor, [3H]-8-OH-DPAT radioligand; details: 1 nM compound; [3H]-8-OH-DPAT 0.5 nM
Sequence (P08908 whole entry): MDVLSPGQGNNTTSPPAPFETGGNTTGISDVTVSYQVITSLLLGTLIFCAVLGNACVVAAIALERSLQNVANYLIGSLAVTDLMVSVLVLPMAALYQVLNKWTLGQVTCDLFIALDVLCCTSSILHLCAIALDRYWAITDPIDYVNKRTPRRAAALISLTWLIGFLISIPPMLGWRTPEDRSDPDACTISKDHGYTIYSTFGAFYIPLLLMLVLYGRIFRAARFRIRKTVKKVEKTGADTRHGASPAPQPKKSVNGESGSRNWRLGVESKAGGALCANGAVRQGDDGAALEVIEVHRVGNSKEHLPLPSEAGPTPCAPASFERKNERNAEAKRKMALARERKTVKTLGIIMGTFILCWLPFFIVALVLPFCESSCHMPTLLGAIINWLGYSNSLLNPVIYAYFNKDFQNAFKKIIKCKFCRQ
METRIC NAME: 5HT1A receptor Binding % at 1 nM

>  <CHEMICAL SMILES>
Oc1cccc(N2CCN(Cc3cc4c(cn3)[nH]c3ccccc34)CC2)c1

>  <METRIC NAME>
5HT1A receptor Binding % at 1 nM

>  <OBSERVED RESULT>
active

$$$$
>  <CHEMICAL SMILES>
COc1ccccc1N1CCN(Cc2cc3c(cn2)[nH]c2ccccc23)CC1

>  <METRIC NAME>
5HT1A receptor Binding % at 1 nM

>  <OBSERVED RESULT>
active

$$$$
>  <CHEMICAL SMILES>
O=c1[nH]c(CN2CCN(c3cccc(O)c3)CC2)nc2sc3c(c12)CCCC3

>  <METRIC NAME>
5HT1A receptor Binding % at 1 nM

>  <OBSERVED RESULT>
active

$$$$
>  <CHEMICAL SMILES>
O=c1[nH]c(CN2CCC(c3ccccc3)CC2)nc2sc3c(c12)CCCC3

>  <METRIC NAME>
5HT1A receptor Binding % at 1 nM

>  <OBSERVED RESULT>
active

$$$$
>  <CHEMICAL SMILES>
CCOc1ccccc1N1CCN(Cc2cc3c(cn2)[nH]c2ccccc23)CC1

>  <METRIC NAME>
5HT1A receptor Binding % at 1 nM

>  <OBSERVED RESULT>
1.78%

$$$$
>  <CHEMICAL SMILES>
CCOc1ccccc1N1CCN(Cc2nc3sc4c(c3c(=O)[nH]2)CCCC4)CC1

>  <METRIC NAME>
5HT1A receptor Binding % at 1 nM

>  <OBSERVED RESULT>
0.9%

$$$$

* * *

molecular target: 5-HT1A type serotonin receptor (human recombinant, HEK-293 cells) (Homo sapiens, UniProt P08908); construct: expressed in transfected cells; host or cells: HEK-293 cells; assay: Competitive binding to 5-HT1A receptor, [3H]-8-OH-DPAT radioligand; conditions: 1 μM compound; [3H]-8-OH-DPAT 0.5 nM
METRIC NAME: 5HT1A receptor Binding % at 1 μM

>  <MOLECULE>
O=c1[nH]c(CN2CCC(c3ccccc3)CC2)nc2sc3c(c12)CCCC3 [Compound B-93]

>  <METRIC NAME>
5HT1A receptor Binding % at 1 μM

>  <OBSERVED RESULT>
active

$$$$
>  <MOLECULE>
O=c1[nH]c(CN2CCN(c3cccc(O)c3)CC2)nc2sc3c(c12)CCCC3 [Compound B-95]

>  <METRIC NAME>
5HT1A receptor Binding % at 1 μM

>  <OBSERVED RESULT>
active

$$$$
>  <MOLECULE>
CCOc1ccccc1N1CCN(Cc2cc3c(cn2)[nH]c2ccccc23)CC1 [Compound B-97]

>  <METRIC NAME>
5HT1A receptor Binding % at 1 μM

>  <OBSERVED RESULT>
99.45%

$$$$
>  <MOLECULE>
CCOc1ccccc1N1CCN(Cc2nc3sc4c(c3c(=O)[nH]2)CCCC4)CC1 [Compound B-94]

>  <METRIC NAME>
5HT1A receptor Binding % at 1 μM

>  <OBSERVED RESULT>
62.77%

$$$$
>  <MOLECULE>
Oc1cccc(N2CCN(Cc3cc4c(cn3)[nH]c3ccccc34)CC2)c1 [Compound B-96]

>  <METRIC NAME>
5HT1A receptor Binding % at 1 μM

>  <OBSERVED RESULT>
active

$$$$
>  <MOLECULE>
COc1ccccc1N1CCN(Cc2cc3c(cn2)[nH]c2ccccc23)CC1 [Compound B-99]

>  <METRIC NAME>
5HT1A receptor Binding % at 1 μM

>  <OBSERVED RESULT>
active

$$$$
